Origin of values: patent US20250011363A1

For each record, write down the corresponding Binding affinity (RU).
molecular target: acetylcholine receptor; assay: SPR, AchR on CM5 chip, peptide 10 µM
The figure you give is taken to be in RU; do not add the unit.

### Prompt # return recorded Binding affinity (RU) for input RRHAHK [6mer-1-1187]
### Response 26

### Prompt # return recorded Binding affinity (RU) for input RRMNER [6mer-1-1188]
### Response 41

### Prompt # return recorded Binding affinity (RU) for input KKEMMK [6mer-1-1185]
### Response 29

### Prompt # return recorded Binding affinity (RU) for input KRFTDK [6mer-1-1137]
### Response 33

### Prompt # return recorded Binding affinity (RU) for input KKPTNK [6mer-1-1193]
### Response 33

### Prompt # return recorded Binding affinity (RU) for input KKHTER [6mer-1-1135]
### Response 26

### Prompt # return recorded Binding affinity (RU) for input KKMENR [6mer-1-1139]
### Response 36

### Prompt # return recorded Binding affinity (RU) for input KKMMPK [6mer-1-1146]
### Response 34
